target: PIK3CG (human)
Decision: IC50 beneath 20 nM gives satisfied; IC50 meeting or exceeding 20 nM gives not satisfied.

input: Answer whether the molecule `COc1cc2c(SC3CCCCC3)c(C(=O)Nc3nnn[nH]3)sc2cc1F` has IC50 strictly less than 20 nM
output: satisfied

input: Also need `COc1cc2c(OC3CCN(C(=O)OC(C)(C)C)CC3)c(C(=O)Nc3nn[nH]n3)sc2cc1F` , thanks.
output: satisfied

input: Also need `COc1cc2c(OCC3(C)CC3)c(C(=O)Nc3nn[nH]n3)sc2cc1F` , thanks.
output: satisfied

input: Also need COc1ccc2sc(C(=O)Nc3nnn[nH]3)c(SC(c3ccccc3)C(C)N(C)C(C)=O)c2c1F (configuration not stated) , thanks.
output: not satisfied

input: Also need `COc1ccc2sc(C(=O)Nc3nnn[nH]3)c(Sc3ccc(CC(=O)O)cc3)c2c1F` , thanks.
output: not satisfied

input: Also need `COc1cc2c(Oc3ccccc3)c(C(=O)Nc3nn[nH]n3)sc2cc1F` , thanks.
output: not satisfied

input: Also need `COc1cc2c(O[C@@H]3CCC[C@@H](C)C3)c(C(=O)Nc3nn[nH]n3)sc2cc1F` , thanks.
output: not satisfied
